Consider the following compounds; for each one, report its pIC50.
Target: CypE (Homo sapiens, UniProt Q9UNP9)
Construct: PPIE (UniProtKB Entry Q9UNP9: residues 131–301); host or cells: E. coli BL21(DE3)
Sequence (Q9UNP9 131-301): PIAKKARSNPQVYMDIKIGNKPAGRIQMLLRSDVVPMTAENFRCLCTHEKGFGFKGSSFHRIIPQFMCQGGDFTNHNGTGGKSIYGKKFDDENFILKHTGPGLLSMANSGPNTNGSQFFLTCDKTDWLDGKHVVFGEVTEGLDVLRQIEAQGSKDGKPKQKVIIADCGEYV
Experiment: Chymotrypsin coupled prolyl-isomerase assay
Assay type: biochemical
Conditions: wild-type CypE; read-out: Wild-Type Cyclophilin Prolyl Isomerase Inhibition IC50 Values, CypE
Answers are plain numbers, as −log10 of the molar value.

[
  {
    "compound": "NCCOCCNC(=O)C1CCNC(=O)C=CC(=O)N2CCCC(C2)C(=O)NC(Cc2ccc(C(=O)c3ccccc3)cc2)C(=O)NCc2ccccc2CC(=O)N1 (centres unmarked)",
    "tgt": "CypE (Homo sapiens, UniProt Q9UNP9)",
    "pIC50": 4.89
  },
  {
    "compound": "NCCOCCNC(=O)[C@@H]1CCNC(=O)/C=C/C(=O)N2CCC[C@](Cc3ccccc3)(C2)C(=O)N[C@@H](Cc2ccc(-c3ccc(C(CC(=O)O)CC(=O)O)cc3)cc2)C(=O)NCc2ccccc2CC(=O)N1",
    "tgt": "CypE (Homo sapiens, UniProt Q9UNP9)",
    "pIC50": 6.10
  },
  {
    "compound": "NCCOCCNC(=O)[C@@H]1CCNC(=O)/C=C/C(=O)N2CCC[C@](Cc3ccccc3)(C2)C(=O)N[C@@H](Cc2ccc(-c3ccc(CCC(=O)O)cc3)cc2)C(=O)NCc2ccccc2CC(=O)N1",
    "tgt": "CypE (Homo sapiens, UniProt Q9UNP9)",
    "pIC50": 7.72
  },
  {
    "compound": "NCCCc1ccc(-c2ccc(C[C@@H]3NC(=O)[C@]4(Cc5ccccc5)CCCN(C4)C(=O)/C=C/C(=O)NCC[C@@H](C(=O)NCCOCCN)NC(=O)Cc4ccccc4CNC3=O)cc2)cc1",
    "tgt": "CypE (Homo sapiens, UniProt Q9UNP9)",
    "pIC50": 5.15
  }
]

Now look at this one.
Record summary for "NCCOCCNC(=O)[C@@H]1CCNC(=O)/C=C/C(=O)N2CCC[C@](Cc3ccccc3)(C2)C(=O)N[C@@H](Cc2ccc(-c3ccc(C#CC(=O)O)cc3)cc2)C(=O)NCc2ccccc2CC(=O)N1" : reported pIC50 = 8.05
